- Tested on: COLO 205
- assay procedure: NCI tumour cell line growth inhibition, 48 h
Active and inactive are the calls of the source. No stated cut-off is given here; in the data, active = GI50 up to about 1.1 µM and inactive = higher.
quantity: GI50

Query: Form: Entry = CN1CCc2c(sc3ncn(C)c(=N)c23)C1 | System = COLO 205 | GI50 = ____
Response: > 100 µM (inactive)

Query: Form: Entry = c1ccc(C2(c3cc4ccccc4[nH]3)OCCO2)cc1 | System = COLO 205 | GI50 = ____
Response: 27.9 µM (inactive)

Query: Form: Entry = CCCN(CCC)C(=O)c1c(Cl)c2cccnc2n2c(C)cnc12 | System = COLO 205 | GI50 = ____
Response: 49.5 µM (inactive)

Query: Form: Entry = COc1cc(S(=O)(=O)Nc2nc(-c3ccc(/N=C/c4cccs4)cc3)cs2)ccc1Cl | System = COLO 205 | GI50 = ____
Response: > 100 µM (inactive)

Query: Form: Entry = N#CCc1ccc(C(C#N)/C(CCCC(=O)Nc2cccc([N+](=O)[O-])c2)=N/NC(N)=S)cc1 (stereo not given) | System = COLO 205 | GI50 = ____
Response: > 100 µM (inactive)

Query: Form: Entry = O=c1c2cc(I)ccc2nc(Sc2ncccc2[N+](=O)[O-])n1Cc1ccccc1 | System = COLO 205 | GI50 = ____
Response: 27.5 µM (inactive)

Query: Form: Entry = CN(CCCCN1CCCC1)CCCN(C)C(=O)Cc1ccc(Cl)c(Cl)c1 | System = COLO 205 | GI50 = ____
Response: 11.9 µM (inactive)

Query: Form: Entry = COc1cc(C2C(Cl)C(=O)N2NC(=O)c2ccc(N)cc2)cc(Br)c1O (stereo not given) | System = COLO 205 | GI50 = ____
Response: 18.7 µM (inactive)

Query: Form: Entry = COc1c(C)c2c(c(C)c1Cl)Oc1c(C=O)c(O)c(Cl)c(C)c1C(=O)O2 | System = COLO 205 | GI50 = ____
Response: 22.8 µM (inactive)

Query: Form: Entry = CCOC(=O)c1ccc(NCC#CCN2CCOCC2)cc1 | System = COLO 205 | GI50 = ____
Response: 38 µM (inactive)

====

- Test system: 786-0
- assay procedure: NCI tumour cell line growth inhibition, 48 h
Active and inactive are the calls of the source. Rule as the data show it: active = GI50 up to about 1.1 µM and inactive = higher.
Select the matching outcome among TRUE for active, FALSE for inactive

Query: Field: outcome | Entry: CC(=O)N(CN1C(=O)CCC1C(=O)O)c1cccc(O)c1 (stereo unspecified)
Response: FALSE

Query: Field: outcome | Entry: O=[N+]([O-])c1ccc2c(c1)Sc1ccccc1N2
Response: FALSE

Query: Field: outcome | Entry: N#Cc1ccc(/N=C(/NCC(=O)O)Nc2cccc3ccccc23)cc1
Response: FALSE

Query: Field: outcome | Entry: CCOC(=O)Nc1nc2cc(Cn3cccc3)ccc2[nH]1
Response: TRUE

Query: Field: outcome | Entry: CCCn1c(SCC)c2cc3cc4ccccc4cc3cc2c1-c1nc(F)nc(F)n1
Response: FALSE

Query: Field: outcome | Entry: Cc1cc([N+](=O)[O-])c(C)c2c1[nH]c1ccc(/C(CCC3CCCC3)=N\N)cc12
Response: FALSE

Query: Field: outcome | Entry: C=C(CN(C)C)C(=O)c1ccccc1
Response: FALSE

Query: Field: outcome | Entry: SCc1ccc(CS)s1
Response: FALSE

Query: Field: outcome | Entry: O=C(Cc1ccccc1)NN1C(=O)/C(=C\c2ccccc2)S/C1=N\c1ccccc1
Response: FALSE

Query: Field: outcome | Entry: O=C(NC(=O)c1cn(CCN(CCO)C(=O)NCCCCCCNC(=O)N(CCO)CCn2cc(C(=O)NC(=O)OCc3ccccc3)c(=O)[nH]c2=O)c(=O)[nH]c1=O)OCc1ccccc1
Response: FALSE

Query: Field: outcome | Entry: C(/Cc1ccc2c(c1)OCO2)=N\N=C1NCCN1
Response: FALSE

====

- Test system: SF-268
- assay procedure: NCI tumour cell line growth inhibition, 48 h
Activity calls are given as the source filed them. No stated cut-off is given here; in the data, active = GI50 up to about 1.1 µM and inactive = higher.
Select the matching outcome among T for active, F for inactive

Query: Field: outcome | Entry: CCCCCCNC(=O)c1cc(NCc2cc(OC)ccc2OC)ccc1O
Response: F

Query: Field: outcome | Entry: C[C@H](NC(=O)n1c2ccccc2c2ccccc21)C(=O)O
Response: F

Query: Field: outcome | Entry: O=C(OCc1ccc([N+](=O)[O-])cc1)N1c2ccccc2[C@@]23O[C@]24CCC[C@H]3C#C/C=C\C#C[C@H]14
Response: F

Query: Field: outcome | Entry: O=C1OC(OCC#CCOC2OC(=O)C(Cl)=C2Cl)C(Cl)=C1Cl (stereo not given)
Response: F

Query: Field: outcome | Entry: Cc1cnc2[nH]c(-c3cccc(Cl)c3)cc(=O)c2c1
Response: T

Query: Field: outcome | Entry: Cc1cc2c(c(=O)o1)C1=S(SC(c3ccccc3)=C1)S2 (stereo not given)
Response: F

Query: Field: outcome | Entry: COc1cc(S(=O)(=O)Nc2nc(-c3ccc(/N=C/c4cccs4)cc3)cs2)ccc1Cl
Response: F

Query: Field: outcome | Entry: O=C1C(NCCF)=C(Cl)C(=O)c2ncccc21
Response: F

Query: Field: outcome | Entry: C[C@@H]1C[C@H]2OC(=O)[C@@]3(C)CCC[C@@](C)([C@@H]23)[C@@]1(O)CCc1ccoc1
Response: F

Query: Field: outcome | Entry: CCOC(=O)C1S/C(=N\c2ccc(OC)c(OC)c2)N=C1C (stereo not given)
Response: F

====

- Tested on: U-251
- assay procedure: NCI tumour cell line growth inhibition, 48 h
Active and inactive are the calls of the source. Rule as the data show it: active = GI50 up to about 1.1 µM and inactive = higher.
quantity: GI50

Query: Fill in: GI50 of CCOC(=O)c1c(NC(=O)c2ccccc2)c(C#N)c2n1CCCCC2 is ___
Response: > 100 µM (inactive)

Query: Fill in: GI50 of CCOC(=O)CCC(NC(=O)OCc1ccccc1)C(=O)NC(CCC(=O)OCC)C(=O)NNC(=O)OC(C)(C)C (stereo not given) is ___
Response: > 100 µM (inactive)

Query: Fill in: GI50 of CC(=O)c1cccc(N2COC(C)(C)c3nc4ccccc4n3C2)c1 is ___
Response: > 100 µM (inactive)

Query: Fill in: GI50 of Oc1ccc(SCc2cc(O)c(O)c(O)c2)cc1 is ___
Response: 37.1 µM (inactive)

Query: Fill in: GI50 of Cc1nc(Nc2ccccc2)sc1C(=O)NNc1ccc([N+](=O)[O-])cc1[N+](=O)[O-] is ___
Response: 38.6 µM (inactive)

Query: Fill in: GI50 of Cc1ccc(-c2nc(Cc3n[nH]c(-c4ccc(C)cc4)n3)n[nH]2)cc1 is ___
Response: 3.71 µM (inactive)

Query: Fill in: GI50 of COC(=O)/C(C)=N/N=C(\S)SC is ___
Response: 38.5 µM (inactive)

Query: Fill in: GI50 of COc1ccc2c(c1O)-c1cc(O)cc3c1[C@@H](C2)N(C)CC3 is ___
Response: 10.7 µM (inactive)

Query: Fill in: GI50 of Cc1cnc2[nH]c(-c3cccc(Cl)c3)cc(=O)c2c1 is ___
Response: 0.0484 µM (active)

Query: Fill in: GI50 of CC1=C(O)C(O)=C(C2=C(O)C(O)=C(C)C(=O)C2=O)C(=O)C1=O is ___
Response: 40.9 µM (inactive)

====

- Test system: IGROV-1
- assay procedure: NCI tumour cell line growth inhibition, 48 h
Activity calls are given as the source filed them. Cut-off read from the data, not from the text of the source: active = GI50 up to about 1.1 µM and inactive = higher.
Please respond with reported GI50 for every item in the list.

Query: Fill in: GI50 of CN(CCCCN1CCCC1)CCCN(C)C(=O)Cc1ccc(Cl)c(Cl)c1 is ___
Response: 20.2 µM (inactive)

Query: Fill in: GI50 of NC(=O)NN=C1Cc2ccccc2C1 is ___
Response: > 100 µM (inactive)

Query: Fill in: GI50 of CSc1c(C(=O)Nc2ccc(C)cc2)c(N)n(N)c(=O)c1C#N is ___
Response: > 100 µM (inactive)

Query: Fill in: GI50 of Cc1nc2c(O)c3c(c(O)c2nc1C)C1C=CC3CC1 is ___
Response: 7.31 µM (inactive)

Query: Fill in: GI50 of CN1CCN2c3ccccc3CC(C#N)(C#N)C2C1 (configuration not stated) is ___
Response: > 100 µM (inactive)

Query: Fill in: GI50 of CC12CC(Sc3ccccc3N1)c1ccccc1O2 (configuration not stated) is ___
Response: 21.9 µM (inactive)

Query: Fill in: GI50 of CCOC(=O)C1S/C(=N\c2ccc(OC)c(OC)c2)N=C1C (configuration not stated) is ___
Response: 56.6 µM (inactive)

Query: Fill in: GI50 of COC(=O)c1cc2ccc(O)c(O)c2cn1 is ___
Response: 17.5 µM (inactive)

Query: Fill in: GI50 of O=C1CCc2cc3c(cc21)C(C(=O)O)CC3 (configuration not stated) is ___
Response: > 100 µM (inactive)

Query: Fill in: GI50 of O=c1c2cc(I)ccc2nc(Sc2ncccc2[N+](=O)[O-])n1Cc1ccccc1 is ___
Response: 13.7 µM (inactive)

Query: Fill in: GI50 of COC(=O)c1ccc(NCC2=CC(=O)C=CC2=O)cc1 is ___
Response: 16.7 µM (inactive)

Query: Fill in: GI50 of CCCN(CCC)C(=O)c1c(Cl)c2cccnc2n2c(C)cnc12 is ___
Response: 64.4 µM (inactive)

The reported numbers originate from ChEMBL document CHEMBL1201862.
